Reported kcat values for a set of proteins
Substrate: CC(C)CC(=O)C(=O)O
Test: purified protein
Assay type: biochemical, Saccharomyces cerevisiae
Details: forward reaction, 100 mM Glu, 50 μM PLP, 100 mM NH4Cl, 0.25 mM NADH, 200 mM potassium phosphate pH 8.0, 30°C, apparent
Please respond with the number in s⁻¹ and leave the unit unwritten.

Some solved cases for reference:
PROTEIN	REPORTED_MEASUREMENT
Bat1ΔN16^WT (Saccharomyces cerevisiae S288C; G333S) (protein, first 16 residues (mitochondrial-targeting signal) removed; N-terminal His-tag (pET53-dest, tag not reported cut); E. coli BL21(DE3); dimer) LATGAPLDASKLKITRNPNPSKPRPNEELVFGQTFTDHMLTIPWSAKEGWGTPHIKPYGNLSLDPSACVFHYAFELFEGLKAYRTPQNTITMFRPDKNMARMNKSAARICLPTFESEELIKLTGKLIEQDKHLVPQGNGYSLYIRPTMIGTSKGLGVGTPSEALLYVITSPVGPYYKTGFKAVRLEATDYATRAWPGGVGDKKLGANYAPCILPQLQAAKRGYQQNLWLFGPEKNITEVGTMNVFFVFLNKVTGKKELVTAPLDGTILEGVTRDSVLTLARDKLDPQEWDINERYYTITEVATRAKQGELLEAFGSSTAAVVSPIKEIGWNNEDIHVPLLPGEQCGALTKQVAQWIADIQYGRVNYGNWSKTVADLN	4.95
Bat2^WT (Saccharomyces cerevisiae S288C) (protein, N-terminal His-tag (pET53-dest, tag not reported cut); E. coli BL21(DE3); dimer) MTLAPLDASKVKITTTQHASKPKPNSELVFGKSFTDHMLTAEWTAEKGWGTPEIKPYQNLSLDPSAVVFHYAFELFEGMKAYRTVDNKITMFRPDMNMKRMNKSAQRICLPTFDPEELITLIGKLIQQDKCLVPEGKGYSLYIRPTLIGTTAGLGVSTPDRALLYVICCPVGPYYKTGFKAVRLEATDYATRAWPGGCGDKKLGANYAPCVLPQLQAASRGYQQNLWLFGPNNNITEVGTMNAFFVFKDSKTGKKELVTAPLDGTILEGVTRDSILNLAKERLEPSEWTISERYFTIGEVTERSKNGELLEAFGSGTAAIVSPIKEIGWKGEQINIPLLPGEQTGPLAKEVAQWINGIQYGETEHGNWSRVVTDLN	11.6
Bat1ΔN16^WT (Saccharomyces cerevisiae S288C) (protein, first 16 residues (mitochondrial-targeting signal) removed; N-terminal His-tag (pET53-dest, tag not reported cut); E. coli BL21(DE3); dimer) LATGAPLDASKLKITRNPNPSKPRPNEELVFGQTFTDHMLTIPWSAKEGWGTPHIKPYGNLSLDPSACVFHYAFELFEGLKAYRTPQNTITMFRPDKNMARMNKSAARICLPTFESEELIKLTGKLIEQDKHLVPQGNGYSLYIRPTMIGTSKGLGVGTPSEALLYVITSPVGPYYKTGFKAVRLEATDYATRAWPGGVGDKKLGANYAPCILPQLQAAKRGYQQNLWLFGPEKNITEVGTMNVFFVFLNKVTGKKELVTAPLDGTILEGVTRDSVLTLARDKLDPQEWDINERYYTITEVATRAKQGELLEAFGSGTAAVVSPIKEIGWNNEDIHVPLLPGEQCGALTKQVAQWIADIQYGRVNYGNWSKTVADLN	15.4

Field: next protein
Quick note, kcat for Bat2^WT (Saccharomyces cerevisiae S288C; G316S) (protein, N-terminal His-tag (pET53-dest, tag not reported cut); E. coli BL21(DE3); dimer) MTLAPLDASKVKITTTQHASKPKPNSELVFGKSFTDHMLTAEWTAEKGWGTPEIKPYQNLSLDPSAVVFHYAFELFEGMKAYRTVDNKITMFRPDMNMKRMNKSAQRICLPTFDPEELITLIGKLIQQDKCLVPEGKGYSLYIRPTLIGTTAGLGVSTPDRALLYVICCPVGPYYKTGFKAVRLEATDYATRAWPGGCGDKKLGANYAPCVLPQLQAASRGYQQNLWLFGPNNNITEVGTMNAFFVFKDSKTGKKELVTAPLDGTILEGVTRDSILNLAKERLEPSEWTISERYFTIGEVTERSKNGELLEAFGSSTAAIVSPIKEIGWKGEQINIPLLPGEQTGPLAKEVAQWINGIQYGETEHGNWSRVVTDLN landed at 5.42
